Measured values drawn from patent US20100136009A1 for this set.

- TEST_SYSTEM: T1, recombinant Ovr110-hFc encoded by Ovr110 Construct 2 (human)
- T1 construct: Captured on plates by goat anti-human IgG Fc; also called Ovr110-hFc (with TM)
- T1 chain: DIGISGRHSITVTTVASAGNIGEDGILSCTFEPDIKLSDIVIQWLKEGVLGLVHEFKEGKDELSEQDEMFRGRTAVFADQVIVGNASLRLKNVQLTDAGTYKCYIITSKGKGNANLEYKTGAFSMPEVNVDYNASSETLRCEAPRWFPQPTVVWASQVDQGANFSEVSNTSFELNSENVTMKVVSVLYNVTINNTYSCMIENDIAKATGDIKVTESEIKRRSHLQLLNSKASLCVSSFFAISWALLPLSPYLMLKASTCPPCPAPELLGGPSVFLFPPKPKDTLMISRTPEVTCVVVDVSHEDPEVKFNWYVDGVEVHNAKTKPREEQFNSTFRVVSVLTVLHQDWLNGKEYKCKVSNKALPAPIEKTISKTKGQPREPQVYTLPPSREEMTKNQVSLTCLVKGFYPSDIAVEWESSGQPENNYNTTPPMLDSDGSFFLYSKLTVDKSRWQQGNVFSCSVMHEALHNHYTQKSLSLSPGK
- TEST_METHOD_NOTES: competition ELISA; row = unlabeled blocking MAb; competitor = biotinylated detecting MAb Q3.1
PROPERTY: signal/noise ratio
Respond numerically, and do not add a unit to the figure.

State its signal/noise ratio: Ovr110.Q27 (antibody, IgG1, V domains shown, Mouse hybridoma MAb; also called Q27.4; Q27.2) VH: QVQPQQSGAELARPGASVKLSCKASGYTFTTYWMQWVKQRPGQGLEWIGAIYPGDGDTRYTQKFKGKATLTADKSSSTAYMQLSSLASEDSAVYYCAINWGYAMDYWGQGTSVTVSS VL: DIVLTQSHKIMSTSVGDRVSITCKASQDVRTAVAWYQQKPGQSPKLLIKSASYRYTGVPDRFSGSGSGTDFTFTISSVQAEDLAVYYCQQHYSNPTFGGGTKLEIKR 1.4
